System: Escherichia coli
assaySummary: Antimicrobial activity against Escherichia coli ZK796 harboring empty plasmid
Format: functional

- smilesEntry: "CC[C@H]1OC(=O)[C@H](C)C(=O)[C@H](C)[C@@H](O[C@@H]2O[C@H](C)C[C@H](N(C)C)[C@H]2O)[C@](C)(OC)C[C@@H](C)C(=O)[C@H](C)[C@H]2N(CCCCn3cnc(-c4cccnc4)c3)C(=O)O[C@]12C"
  targetOrSystem: "Escherichia coli"
  MIC: "1.5 µg/mL"
- smilesEntry: "CC[C@H]1OC(=O)[C@H](C)[C@@H](O[C@H]2C[C@@](C)(OC)[C@@H](O)[C@H](C)O2)[C@H](C)[C@@H](O[C@@H]2O[C@H](C)C[C@H](N(C)C)[C@H]2O)[C@](C)(O)C[C@@H](C)C(=O)[C@H](C)[C@@H](O)[C@]1(C)O"
  targetOrSystem: "Escherichia coli"
  MIC: "3 µg/mL"
- smilesEntry: "O=C(N[C@H](CO)[C@H](O)c1ccc([N+](=O)[O-])cc1)C(Cl)Cl"
  targetOrSystem: "Escherichia coli"
  MIC: "2 µg/mL"
- smilesEntry: "CC[C@H]1OC(=O)[C@H](C)C(=O)[C@H](C)[C@@H](O[C@@H]2O[C@H](C)C[C@H](N(C)C)[C@H]2O)[C@](C)(OCC=Cc2cnc3ccccc3c2)C[C@@H](C)C(=O)[C@H](C)[C@H]2NC(=O)O[C@@]21C"
  targetOrSystem: "Escherichia coli"
  MIC: "1.5 µg/mL"

----------
System: Escherichia coli
assaySummary: Induction of erm(C) expression in Escherichia coli JM109 harboring Staphylococcus aureus erm(C)-containing pERMZdelta2-4 mutant leader peptide cistrons reporter plasmid at 25 mg/ml after 36 hrs at 37 degC by disc-based beta-galactosidase reporter gene assay
Assay type: functional, organism-based
The source made the active and inactive calls. The calls are words filed in the database; no cut-off is given here.

- smilesEntry: "CC[C@H]1OC(=O)[C@H](C)C(=O)[C@H](C)[C@@H](O[C@@H]2O[C@H](C)C[C@H](N(C)C)[C@H]2O)[C@](C)(OC)C[C@@H](C)C(=O)[C@H](C)[C@H]2N(CCCCn3cnc(-c4cccnc4)c3)C(=O)O[C@]12C"
  Activity: "inactive"
- smilesEntry: "CC[C@H]1OC(=O)[C@H](C)[C@@H](O[C@H]2C[C@@](C)(OC)[C@@H](O)[C@H](C)O2)[C@H](C)[C@@H](O[C@@H]2O[C@H](C)C[C@H](N(C)C)[C@H]2O)[C@](C)(OC)C[C@@H](C)C(=O)[C@H](C)[C@@H]2N(NCCCc3ccnc4ccccc34)C(=O)O[C@@]21C"
  Activity: "inactive"
